B1: ANKRD40 (parent)
chain: YQELLRVCCCELGVNPDQVEKIRK

# Variants of: B1
# ASSAY_NAME: protein stability index of a GFP-peptide fusion (GPS, HEK-293T) (PSI 1-6); higher = more stable;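 also: lentivirally expressed fusions sorted by FACS into six bins by GFP to DsRed ratio, PSI derived from sequencing read proportions per bin multiplied by bin number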
# REPORTED_CONDITIONS: c terminus: a fixed tail appended
Parameter protein stability index: see the listing below.
Respond with the number and no other words.

Look up and state reported protein stability index for YQELLRVCCCELGVFPDQVEKIRK [N15F] 1.45

Report protein stability index for YQEDLRVCCCELGVNPDQVEKIRK [L4D] 3.98

Quickly give me recorded protein stability index for YQELLRVCQCELGVNPDQVEKIRK [C9Q] 2.27

Output measured protein stability index for this item: YQELLRVCCCELIVNPDQVEKIRK [G13I] 1.78

Could you please provide reported protein stability index for YQELLRVCCCELGVIPDQVEKIRK [N15I] ? Thanks! 1.37

Give the value of protein stability index reported for the following: YEELLRVCCCELGVNPDQVEKIRK [Q2E] 2.98

Consider the variant YQELLRVCCCELGDNPDQVEKIRK [V14D] and give its recorded protein stability index. 2.88

Return protein stability index for the following variant: YQELLRVCCCELGVNPDQVEKIRM [K24M] 1.66

Provide only the value of recorded protein stability index for YQELLRVCCCEIGVNPDQVEKIRK [L12I] 2.21

Specify reported protein stability index for the variant shown: YQELLRVCCCELGNNPDQVEKIRK [V14N] 1.85

Specify measured protein stability index for YQELLRFCCCELGVNPDQVEKIRK [V7F] . 1.61

Query protein stability index for YQELLRVCDCELGVNPDQVEKIRK [C9D] 3.15

Quick one: give measured protein stability index for YQELLRVCCCELGVNPDVVEKIRK [Q18V] 1.8

Consider the variant YQELLQVCCCELGVNPDQVEKIRK [R6Q] . State its measured protein stability index. 2.26
